# Measurement description: label from the status in PepcDB records
Quantity name: protein production

• MTLPQTMKAAVVHAYGAPLRIEEVKVPLPGPGQVLVKIEASGVCHTDLHAAEGDWPVKPPLPFIPGHEGVGYVAAVGSGVTRVKEGDRVGIPWLYTACGCCEHCLTGWETLCESQQNTGYSVNGGYAEYVLADPNYVGILPKNVEFAEIAPILCAGVTVYKGLKQTNARPGQWVAISGIGGLGHVAVQYARAMGLHVAAIDIDDAKLELARKLGASLTVNARQEDPVEVLQRDIGGAHGVLVTAVSNSAFGQAIGMARRGGTIALVGLPPGDFPTPIFDVVLKGLHIAGSIVGTRADLQEALDFAGEGLVKATIHPGKLDDINQILDQMRAGQIEGRIVLEM = not failed
• ALQAGRLGSTVFVANLDYKVGWKKLKEVFSMAGVVVRADILEDKDGKSRGIGTVTFEQSIEAVQAISMFNGQLLFDRPMHVKMDERALPKGDFFPPERPQQ = not failed
